Biological target: cross-linking of glycated bovine serum albumin (AGE-BSA) to the rat tail tendon collagen (Bos taurus, UniProt P02769)
Sequence (P02769 25-607): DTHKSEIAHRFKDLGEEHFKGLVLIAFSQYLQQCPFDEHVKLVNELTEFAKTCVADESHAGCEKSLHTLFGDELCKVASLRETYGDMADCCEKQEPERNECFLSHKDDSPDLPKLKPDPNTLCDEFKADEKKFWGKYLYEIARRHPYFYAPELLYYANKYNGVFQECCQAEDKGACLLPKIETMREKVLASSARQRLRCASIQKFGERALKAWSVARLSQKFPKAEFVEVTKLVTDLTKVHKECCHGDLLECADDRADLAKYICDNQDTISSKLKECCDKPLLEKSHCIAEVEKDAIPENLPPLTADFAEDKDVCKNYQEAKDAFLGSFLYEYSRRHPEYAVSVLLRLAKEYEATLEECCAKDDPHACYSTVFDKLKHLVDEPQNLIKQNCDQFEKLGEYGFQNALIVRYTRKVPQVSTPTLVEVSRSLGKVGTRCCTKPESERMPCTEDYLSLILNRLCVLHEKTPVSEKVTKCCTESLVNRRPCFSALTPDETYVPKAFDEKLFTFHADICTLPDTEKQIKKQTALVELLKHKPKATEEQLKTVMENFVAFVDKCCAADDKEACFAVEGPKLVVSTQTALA
Assay: Inhibition of cross-linking of AGE-BSA to rat tail tendon collagen coated plate (ELISA)
Settings: rat, 4 h, pH 7.4
Protocol: The following method was used to evaluate the ability of the compounds of the present invention to inhibit the cross-linking of glycated bovine serum albumin (AGE-BSA) to the rat tail tendon collagen coated 96-well plate. The glycated BSA was then extensively dialyzed against phosphate buffer solution (PBS) for 48 hours with additional 5 times buffer exchanges. […] The cross-linked AGE-BSA to the tail tendon coated plate was then quantitated by the polyclonal antibody raised against AGE-RNase. […]
readout label: IC50 (µM)

>>> recorded_number("CCN(CC)c1ccc(C(=O)Cn2cc[n+](C)c2)cc1")
1750
